Assay: Honey bee acute contact toxicity and synergism study
Format: in vivo, Apis mellifera
Settings: female, Apis mellifera (honey bee), in vivo, topical, 0.2 μg/bee, honey bee mortality, topical 0.2 μg/bee CPR alone, 48 h
MEASURED ENDPOINT: mortality at 48 h (%)
Answers are plain numbers, in %.

Give me measured mortality at 48 h, please, for this compound: CNC(=O)c1cc(Cl)cc(C)c1NC(=O)c1cc(Br)nn1-c1ncccc1Cl
3.6

---

Test: Honey bee acute contact toxicity and synergism study
Assay type: in vivo, Apis mellifera
Details: female, Apis mellifera (honey bee), in vivo, topical, honey bee mortality, topical application of 2 μg/bee and 0.2 μg/bee CPR alone
MEASURED ENDPOINT: mortality at 48 h

Annotate the molecule CNC(=O)c1cc(Cl)cc(C)c1NC(=O)c1cc(Br)nn1-c1ncccc1Cl with its measured mortality at 48 h.
< 15%

---

Hi there, I'd appreciate the recorded pIC50 for every entry that follows.
Target: honey bee CYP9Q3 (Apis mellifera)
Test: Fluorescence-based BOMFC probe assay with recombinantly expressed CYP9Q3
Format: biochemical
Settings: IC50 CYP9Q3, fungicides, BOMFC probe
Give bare numbers, as −log10 of the molar value.

Solved entries (count: 4):
CC1(C)CCC(Cc2ccc(Cl)cc2)C1(O)Cn1cncn1 (centres unmarked) [Metconazole, metconazole] :: 7.24
O=C(Nc1ccccc1-c1ccc(Cl)cc1)c1cccnc1Cl [Boscalid, boscalid] :: 5.38
CC1COC(Cn2cncn2)(c2ccc(Oc3ccc(Cl)cc3)cc2Cl)O1 (centres unmarked) [Difenoconazole, difenoconazole] :: 7.49
COC(=O)N(OC)c1ccccc1COc1ccn(-c2ccc(Cl)cc2)n1 [Pyraclostrobin, pyraclostrobin] :: 5.11

Supply measured pIC50 of N#CC(CCc1ccc(Cl)cc1)(Cn1cncn1)c1ccccc1 (centres unmarked) [Fenbuconazole, fenbuconazole] in your reply.
7.24

---

Target: honey bee CYP9Q3 (Apis mellifera, UniProt A0A7M7LMV1)
Sequence (A0A7M7LMV1 1-517): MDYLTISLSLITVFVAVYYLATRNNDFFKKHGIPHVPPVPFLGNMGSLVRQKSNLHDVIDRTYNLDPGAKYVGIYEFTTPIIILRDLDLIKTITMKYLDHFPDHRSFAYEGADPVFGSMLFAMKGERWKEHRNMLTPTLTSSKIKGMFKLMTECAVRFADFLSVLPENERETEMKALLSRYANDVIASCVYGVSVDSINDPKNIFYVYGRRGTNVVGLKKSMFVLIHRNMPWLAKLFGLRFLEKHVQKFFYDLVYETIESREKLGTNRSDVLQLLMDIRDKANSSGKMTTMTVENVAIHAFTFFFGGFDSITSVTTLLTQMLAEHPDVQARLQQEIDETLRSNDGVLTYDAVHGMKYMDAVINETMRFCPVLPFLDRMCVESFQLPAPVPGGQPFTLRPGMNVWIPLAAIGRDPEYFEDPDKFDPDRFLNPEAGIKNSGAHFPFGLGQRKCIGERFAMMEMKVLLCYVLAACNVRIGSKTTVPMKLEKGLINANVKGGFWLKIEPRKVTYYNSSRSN
Sequence (A0A8U1CY41 1-694 partner): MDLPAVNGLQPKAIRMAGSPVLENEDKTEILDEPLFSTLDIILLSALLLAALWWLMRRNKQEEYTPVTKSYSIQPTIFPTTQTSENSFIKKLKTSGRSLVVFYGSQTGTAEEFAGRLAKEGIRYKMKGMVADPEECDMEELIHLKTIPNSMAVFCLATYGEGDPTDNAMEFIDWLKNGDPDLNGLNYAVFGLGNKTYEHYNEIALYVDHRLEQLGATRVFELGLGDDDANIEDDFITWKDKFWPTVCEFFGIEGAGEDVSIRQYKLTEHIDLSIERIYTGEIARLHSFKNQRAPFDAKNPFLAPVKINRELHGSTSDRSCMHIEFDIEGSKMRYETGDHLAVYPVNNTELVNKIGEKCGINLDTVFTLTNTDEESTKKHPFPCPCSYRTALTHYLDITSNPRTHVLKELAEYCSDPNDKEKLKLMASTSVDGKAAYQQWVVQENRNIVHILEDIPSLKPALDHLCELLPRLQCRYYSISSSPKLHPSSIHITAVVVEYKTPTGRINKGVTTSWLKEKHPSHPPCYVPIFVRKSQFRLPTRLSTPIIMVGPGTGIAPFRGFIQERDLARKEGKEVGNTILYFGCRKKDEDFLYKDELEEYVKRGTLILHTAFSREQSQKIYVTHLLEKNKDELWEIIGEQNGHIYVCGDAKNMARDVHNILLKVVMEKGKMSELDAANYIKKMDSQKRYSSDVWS
Assay: Fluorescence-based BOMFC probe assay with recombinantly expressed CYP9Q3
Type: biochemical
Settings: IC50 CYP9Q3, lowest IC50 value
MEASURED ENDPOINT: IC50

Note IC50 for the compound shown: CC1COC(Cn2cncn2)(c2ccc(Oc3ccc(Cl)cc3)cc2Cl)O1 (stereo not shown) [Difenoconazole, difenoconazole]
~30 nM

---

Task for the reader: assign each of the following molecules its reported IC50.
Target: honey bee CYP9Q2 (Apis mellifera)
Assay: Fluorescence-based BOMFC probe assay with recombinantly expressed CYP9Q2
Type: biochemical
Settings: IC50 CYP9Q2, fungicides, BOMFC probe

CC(C)NC(=O)N1CC(=O)N(c2cc(Cl)cc(Cl)c2)C1=O :: > 10 µM
Cc1cc(C2CC2)nc(Nc2ccccc2)n1 :: > 10 µM
CC1COC(Cn2cncn2)(c2ccc(Oc3ccc(Cl)cc3)cc2Cl)O1 (stereo not shown) :: 0.033 µM

Below: the item to evaluate.
Input N#Cc1c(Cl)c(Cl)c(Cl)c(C#N)c1Cl , output reported IC50.
> 10 µM

---

Target: honey bee CYP9Q3 (Apis mellifera)
Experiment: Fluorescence-based BOMFC probe assay with recombinantly expressed CYP9Q3
Type: biochemical
Conditions: fungicides, BOMFC probe
Provide the reported Hill slope CYP9Q3 of each item.
Numbers only.

Recorded Hill slope CYP9Q3, per entry:
N#CC(CCc1ccc(Cl)cc1)(Cn1cncn1)c1ccccc1 (centres unmarked) :: −0.86
CC1(C)CCC(Cc2ccc(Cl)cc2)C1(O)Cn1cncn1 (centres unmarked) :: −1.03
CC1COC(Cn2cncn2)(c2ccc(Oc3ccc(Cl)cc3)cc2Cl)O1 (centres unmarked) :: −1.02
O=C(Nc1ccccc1-c1ccc(Cl)cc1)c1cccnc1Cl :: −1.05

Quickly give me recorded Hill slope CYP9Q3 for COC(=O)N(OC)c1ccccc1COc1ccn(-c2ccc(Cl)cc2)n1
−0.56

---

Target: UniProt A0A7M7R6F2
Assay: Fluorescence-based BOMFC probe assay with recombinantly expressed CYP9Q2
Assay type: biochemical
Details: IC50 CYP9Q2, fungicides, BOMFC probe
What IC50 was measured for each of the following?
Answers are plain numbers, in nM.

CC1(C)CCC(Cc2ccc(Cl)cc2)C1(O)Cn1cncn1 (stereo not shown) :: 33

Give the reported IC50 for this molecule. N#CC(CCc1ccc(Cl)cc1)(Cn1cncn1)c1ccccc1 (stereo not shown)
41

---

Target: honey bee CYP9Q3 (Apis mellifera, UniProt A0A7M7LMV1)
Assay: Fluorescence-based BOMFC probe assay with recombinantly expressed CYP9Q3
Assay type: biochemical
Details: IC50 CYP9Q3, diamides, BOMFC probe 6.5 μM
Give IC50 for every item shown.

CNC(=O)c1cc(Cl)cc(C)c1NC(=O)c1cc(Br)nn1-c1ncccc1Cl [Chlorantraniliprole] :: 17.4 µM

Report measured IC50 on honey bee CYP9Q3 (Apis mellifera, UniProt A0A7M7LMV1); entry: Cc1cc(C(F)(C(F)(F)F)C(F)(F)F)ccc1NC(=O)c1cccc(I)c1C(=O)NC(C)(C)CS(C)(=O)=O [Flubendiamide, flubendiamide]
> 100 µM

---

Target: honey bee CYP9Q2 (Apis mellifera, UniProt A0A7M7R6F2)
Sequence (A0A7M7R6F2 1-532, one chain of several): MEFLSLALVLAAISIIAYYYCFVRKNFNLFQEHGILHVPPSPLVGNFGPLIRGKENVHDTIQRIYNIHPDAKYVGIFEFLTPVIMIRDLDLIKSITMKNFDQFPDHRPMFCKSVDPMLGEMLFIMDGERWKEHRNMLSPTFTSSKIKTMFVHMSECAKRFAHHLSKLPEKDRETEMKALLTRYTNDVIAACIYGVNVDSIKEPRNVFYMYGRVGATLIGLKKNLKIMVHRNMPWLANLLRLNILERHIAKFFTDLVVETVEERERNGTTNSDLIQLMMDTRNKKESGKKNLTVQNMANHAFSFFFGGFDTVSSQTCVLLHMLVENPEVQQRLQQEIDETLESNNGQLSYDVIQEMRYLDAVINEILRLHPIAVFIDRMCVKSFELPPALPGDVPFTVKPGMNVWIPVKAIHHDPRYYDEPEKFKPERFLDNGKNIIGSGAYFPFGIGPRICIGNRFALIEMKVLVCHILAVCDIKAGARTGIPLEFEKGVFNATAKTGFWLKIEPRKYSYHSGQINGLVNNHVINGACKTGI
Assay: Fluorescence-based BOMFC probe assay with recombinantly expressed CYP9Q2
Assay type: biochemical
Conditions: IC50 CYP9Q2, lowest IC50 value
MEASURED ENDPOINT: IC50

Input CC1COC(Cn2cncn2)(c2ccc(Oc3ccc(Cl)cc3)cc2Cl)O1 (stereo not shown) , output reported IC50.
~30 nM

---

Assay: Honey bee acute contact toxicity and synergism study
Format: in vivo, Apis mellifera
Conditions: female, Apis mellifera (honey bee), in vivo, topical, 100 μg/bee, honey bee mortality, FLB doses of 100 μg/bee, acute contact
MEASURED ENDPOINT: mortality at 48 h

Identify mortality at 48 h associated with the compound Cc1cc(C(F)(C(F)(F)F)C(F)(F)F)ccc1NC(=O)c1cccc(I)c1C(=O)NC(C)(C)CS(C)(=O)=O [Flubendiamide, flubendiamide]
< 5%

---

Biological target: UniProtKB A0A7M7LMV1
Assay: Fluorescence-based BOMFC probe assay with recombinantly expressed CYP9Q3
Type: biochemical
Settings: IC50 CYP9Q3, fungicides, BOMFC probe
pIC50: −log10 of the molar value.
MEASURED ENDPOINT: pIC50

N#Cc1c(Cl)c(Cl)c(Cl)c(C#N)c1Cl :: < 5.00

List pIC50 for every entry below, keeping the order given.
1. CC(C)NC(=O)N1CC(=O)N(c2cc(Cl)cc(Cl)c2)C1=O
2. Cc1cc(C2CC2)nc(Nc2ccccc2)n1

1. < 5.00
2. < 5.00

Values compiled from paper PMC9299185.
